Tested on: DU-145
assay comment: Cytotoxicity against human DU145 cells after 72 hrs by CellTitter-Glo luminescent cell viability assay
Format: functional, cell-based
study conditions: DU-145, 72 h
quantity measured: IC50 (µM)
Reply with just the number (in µM).

What value of measured IC50 is listed for COc1cc2nc(N3CCN(C(=O)C4COc5ccccc5O4)CC3)nc(N)c2cc1OC (centres undefined) ?
37.4

What value of measured IC50 is listed for COc1cc2nc(N3CCN(C(=O)C4COc5ccccc5O4)[C@H]4CCCC[C@H]43)nc(N)c2cc1OC (relative stereo) ?
0.96

What value of measured IC50 is listed for COc1cc2nc(N(C)CCCCCCN(C)C(=O)C3COc4ccccc4O3)nc(N)c2cc1OC (centres undefined) ?
9.25
